Data provenance is ChEMBL document CHEMBL3745671.

- protocol.description: Cmax in healthy human at 30 mg/kg, po bid
- Type: ADME, organism-based
- Set-up: dose 30 mg/kg, route oral
- cond: in vivo
quantity.name: Cmax (ng/mL)
The reply should contain only the number, in ng/mL.

Prompt: Quick one: Cmax for CCS(=O)(=O)NCc1cncc(-c2c(C#N)c3ccc(Cl)cc3n2C)c1 ?
Completion: 117

###

- subject.of.test: CYP19 (aromatase) (Homo sapiens, UniProt P11511)
- Sequence (P11511 whole entry): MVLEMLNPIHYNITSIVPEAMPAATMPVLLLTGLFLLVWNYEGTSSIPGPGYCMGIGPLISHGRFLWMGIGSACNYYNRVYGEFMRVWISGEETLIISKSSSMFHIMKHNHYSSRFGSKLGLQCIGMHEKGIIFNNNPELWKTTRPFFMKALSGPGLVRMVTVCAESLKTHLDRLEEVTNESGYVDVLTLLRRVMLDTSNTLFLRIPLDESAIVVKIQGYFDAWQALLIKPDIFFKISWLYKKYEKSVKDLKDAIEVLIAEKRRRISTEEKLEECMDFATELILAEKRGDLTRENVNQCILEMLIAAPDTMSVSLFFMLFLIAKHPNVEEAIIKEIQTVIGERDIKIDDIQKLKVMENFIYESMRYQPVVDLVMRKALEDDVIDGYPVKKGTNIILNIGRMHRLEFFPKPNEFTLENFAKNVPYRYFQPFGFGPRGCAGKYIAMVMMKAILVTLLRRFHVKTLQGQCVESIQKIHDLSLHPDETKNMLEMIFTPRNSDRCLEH
- protocol.description: Inhibition of human CYP19 at 10 uM preincubated for 10 mins with NADPH followed by protein addition measured after 90 mins by fluorometric analysis
inhibition at 1.5 h, 10 µM: recorded values
The reply should contain only the number, in %.

Solved cases below.
molecular.string | reading
CCS(=O)(=O)NCc1cncc(-c2cc3ccc(Cl)nc3n2C)c1 | 11
CCS(=O)(=O)NCc1cncc(-c2c(C#N)c3ccc(Cl)cc3n2C)c1 | 82
Cc1c(-c2cccnc2)n(C)c2ccccc12 | 91
CN(C)S(=O)(=O)Oc1cncc(-c2c(C#N)c3ccccc3n2C)c1 | 27

Prompt: Quick one: inhibition at 1.5 h, 10 µM for Cn1c(-c2cccnc2)c(C#N)c2ccc(Cl)cc21 ?
Completion: 47

Prompt: Quick one: inhibition at 1.5 h, 10 µM for Cn1c(-c2cccnc2)c(C#N)c2ccccc21 ?
Completion: 58

Prompt: Quick one: inhibition at 1.5 h, 10 µM for CCS(=O)(=O)Nc1cncc(-c2c(C#N)c3ccc(Cl)cc3n2C)c1 ?
Completion: 15

Prompt: Quick one: inhibition at 1.5 h, 10 µM for Cc1c(-c2cccnc2)[nH]c2ccccc12 ?
Completion: 94
